# reported GI50; entries follow
# Test system: OVCAR-5
# run-description: NCI tumour cell line growth inhibition, 48 h
The source made the active and inactive calls. No stated cut-off is given here; in the data, active = GI50 up to about 1.1 µM and inactive = higher.

compound: CC(C)C(C/C=C1\CC(CO)(COC(=O)c2ccccc2)OC1=O)C(C)C (stereo not given)
GI50: 14.3 µM (inactive)

compound: CC1(C)CCC(C)(C)C1C(=O)NC(O)C(=O)O (stereo not given)
GI50: > 100 µM (inactive)

compound: Oc1nnc2c(-c3ccccc3)n[nH]c2n1
GI50: > 100 µM (inactive)

compound: O=C(NN=C1CCN(Cc2ccccc2)CC1)C(O)(c1ccccc1)c1ccccc1
GI50: > 100 µM (inactive)

compound: O=c1c(O)c(-c2ccc(O)c(O)c2)oc2cc(O)ccc12 [FISETIN]
GI50: 17.2 µM (inactive)

From: ChEMBL document CHEMBL1201862
